Biological target: T1, human parathyroid hormone receptor 1, wild-type (hPTHR-1) (human, UniProt Q03431 27-593)
T1 sequence (looked up): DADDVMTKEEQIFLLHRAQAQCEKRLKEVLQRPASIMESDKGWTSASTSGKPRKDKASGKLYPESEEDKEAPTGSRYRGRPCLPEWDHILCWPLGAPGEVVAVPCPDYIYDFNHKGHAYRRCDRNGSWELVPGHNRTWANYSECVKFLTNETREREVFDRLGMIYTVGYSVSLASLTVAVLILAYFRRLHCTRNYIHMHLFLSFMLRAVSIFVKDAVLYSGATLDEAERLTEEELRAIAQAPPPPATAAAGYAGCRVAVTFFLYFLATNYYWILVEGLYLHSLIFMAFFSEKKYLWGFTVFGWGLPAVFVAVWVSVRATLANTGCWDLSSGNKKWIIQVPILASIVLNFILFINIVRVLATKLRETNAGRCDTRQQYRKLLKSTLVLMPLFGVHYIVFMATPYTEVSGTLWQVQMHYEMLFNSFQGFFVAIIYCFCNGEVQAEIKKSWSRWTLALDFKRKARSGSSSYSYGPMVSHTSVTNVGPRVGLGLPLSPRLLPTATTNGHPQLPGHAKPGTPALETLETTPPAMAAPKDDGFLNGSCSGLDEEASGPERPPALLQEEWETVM
Assay: cell-based or functional assay
Non-standard residues stand in square brackets, D forms with d. No end group written: not given here. ACPC = 2-aminocyclopentane carboxylic acid; β3hQ = NC(=O)CC[C@H](N)CC(=O)O
readout.kind: cAMP EC50 (nM)

(a) SVSEI[β3hQ]LMHNLGKHLNSMERVEWLRKKLQDVHNF-NH2 [β3Gln(6) PTH(1-34)]
(b) S[ACPC]SEIQLMHNLGKHLNSMERVEWLRKKLQDVHNF-NH2 [ACPC(2) PTH(1-34)]
(c) SVSEIQL[ACPC]HNLGKHLNSMERVEWLRKKLQDVHNF-NH2 [ACPC(8) PTH(1-34)]
// TODO: order the 3 binders above by cAMP EC50, descending API: response body holds the labels in the requested order. a, c, b
